# credit: ChEMBL document CHEMBL4699397

Assay: Half life of the compound
Assay type: physicochemical
reported metric: half-life (min)
Only the number, expressed in min, is required.

Dear colleague, I am looking for the recorded half-life of the following compound: `Nc1ccn([C@@H]2O[C@H](CO)[C@@H](O)C2(F)F)c(=O)n1`
8
